# Target Under Test: T1, glucagon receptor (UniProt P47871 26-477, limits assumed)
# T1 construct: whole, on cells; also called GR; Glucagon
# T1 sequence (P47871 26-477 limits assumed): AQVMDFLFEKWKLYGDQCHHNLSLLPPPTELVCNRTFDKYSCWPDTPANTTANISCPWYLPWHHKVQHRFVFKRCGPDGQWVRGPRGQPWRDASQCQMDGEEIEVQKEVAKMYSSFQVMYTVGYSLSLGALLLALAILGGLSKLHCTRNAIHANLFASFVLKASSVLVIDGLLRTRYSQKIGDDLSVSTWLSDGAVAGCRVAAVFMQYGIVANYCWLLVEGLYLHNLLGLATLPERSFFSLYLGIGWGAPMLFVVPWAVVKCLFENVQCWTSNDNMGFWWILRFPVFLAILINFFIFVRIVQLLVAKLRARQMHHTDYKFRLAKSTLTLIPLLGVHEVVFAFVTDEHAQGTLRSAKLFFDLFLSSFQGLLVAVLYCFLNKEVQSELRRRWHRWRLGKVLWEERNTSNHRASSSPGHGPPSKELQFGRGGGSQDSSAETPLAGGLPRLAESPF
# Assay Remarks: receptor binding, method not described
Square brackets hold non-standard residues; d marks the D form. Ends that are not written are not given here. Abu(4-SO3H) = N[C@@H](CCS(=O)(=O)O)C(=O)O
Entries annotated with measured pIC50
Note on units: pIC50 is unitless, being -log10 of a concentration expressed in mol/L.

Example cases with answers are listed next.
FTSEYSKYLDSRRAQDFVQWLMNT-NH2 (also called [E^9]Glucagon(aa6-29)-NH2; peptide no) [[Glu^9]Glucagon(aa6-29)-NH2] :: 7.44
FTSDYSKYLDSRRAQDFVQWLMNT-NH2 (also called peptide no) [Glucagon(aa6-29)-NH2] :: 5.78
FTSKYSKYLDSRRAQDFVQWLMNT-NH2 (also called [K^9]Glucagon(aa6-29)-NH2; peptide no) [[Lys^9]Glucagon(aa6-29)-NH2] :: 5.49

Q) What measured pIC50 goes with FTS[Abu(4-SO3H)]YSKYLDSRRAQDFVQWLMNT-NH2 (also called [hCys(SO3)9]Glucagon(aa6-29)-NH2) [[hCys^9(SO3H)]Glucagon(aa6-29)-NH2] ?
A) 7.23
